Experiment: Solubility of the active agent in water
Type: physicochemical

# compound, solubility
rows = [
    ("COc1ccc2[nH]cc(CCNC(=O)CC3C(=O)N(CCc4ccc(Cl)cc4Cl)CC(=O)N3CCc3cccs3)c2c1 (stereo not shown) [LPT99]", "~2.4 µM"),
]
